- Tested on: K4 kissing-loop RNA reporter;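 also: bound reporter read as fluorescence of individual clusters on recovered sequencing chips by microscopy, with normalized cluster intensities fitted with a binding model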
- Method summary: apparent KD of K4 kissing-loop reporter; higher = weaker reporter binding
- Measurement context: Eterna round: R107; input ligand: arginine 13.2 mM
For each entry below, report its apparent KD of K4 kissing-loop reporter value.

Give the reported value of apparent KD of K4 kissing-loop reporter for this record: AAACGUUGGUGCGAUACCAGCUGAUCGGAAACGAUCUUGCUGGAGUGAUGUUCCAAGUAAAGCCCUUGGCAGCGCACCGACGAAA [MAT - Same State Theophlline B - Mod of Eli - D22]
58.4 nM

Find the measured apparent KD of K4 kissing-loop reporter of AAAAUAAAGCAGUGAUGUUGCAUAUGAGAAGGAGCGCACGAAAGUGCAGGUAGGUCGCUCAGCCAAGUGGACGAAAACGUCCACA [#OpenEnded 9 #K4Early] and report it.
172 nM

For AAUGUGCAGGGAAGGAGCGUAGUCCAGUGCUGUUGGAGUUAGAUACCAGUGAUGUUGGUUAUACAGGUAGGUCGCCCUAAAGCGC [whbob_Ex_Arginine_B_2th161] , write its apparent KD of K4 kissing-loop reporter.
154 nM
